Target: Fuc(a1-2)Gal6S(b1-4)GlcNAc
Assay: glycan array binding signal (z-score within array); higher = stronger binding
Conditions: glycan notation: IUPAC condensed, linker removed
Only a selection was taken, and the strongest signals are over-represented in it overall.
The entries below are paired with their reported glycan array binding signal (z-score).

Some binders with known glycan array binding signal (z-score) results, for comparison:
GH95CBM (Clostridium perfringens) (protein) EKVAVETSVYLSELEWKSASTGYGEIQKDASCDGNTITLKGENGEKVSYDKGIGTHAHSEIVYSLEGLDYYDYFETFVGVDQEMAGTVASISFEVYLDNEKVFDSGLMTGDTTQKHVKVPIAGKNTLKLVVKDGGDSIGSDHGSFGDAKLT: -0.296
PEB1 (Campylobacter jejuni), Q0P9X8 (protein) MVFRKSLLKLAVFALGACVAFSNANAAEGKLESIKSKGQLIVGVKNDVPHYALLDQATGEIKGFEVDVAKLLAKSILGDDKKIKLVAVNAKTRGPLLDNGSVDAVIATFTITPERKRIYNFSEPYYQDAIGLLVLKEKKYKSLADMKGANIGVAQAATTKKAIGEAAKKIGIDVKFSEFPDYPSIKAALDAKRVDAFSVDKSILLGYVDDKSEILPDSFEPQSYGIVTKKDDPAFAKYVDDFVKEHKNEIDALAKKWGL: 0.768
Epa7 (Candida glabrata), Q6DTM6_CANGB (protein) MGSSHHHHHHSSGLVPRGSHMKDDYSSFLSNNNLGWTDPTEFPLGCSPNVTTPKNGLSMELYSYDLRKNGSYPCWDAAYLDPNYPRTGYKSHRLLAKVDGVTGNINFYYHATKGCTPEIDHLPASYNYPKPLTMTNFTMLLYGYFKPKVTGYHTFTISADDLLFVNFGAGNAFDCCKRESSADDFGNYQAYAVWGSQTAKDDLTVHLDAGLYYPIRIFFNNREYDAELSLTLKTESDSNPVIDFSDYFYSFDDTKDGCPGLVSYDTS: -0.285

Kindly consider the entry below.
Item GST Gap3 (Streptococcus parasanguinis) (protein) MTKQLISEIYWNEIRKGENYLYGSQIKFQEDLVNFYNPQLASGKPIVTFKSRTNYQGDRHSPDLPILIQGNRYLLEYQIDAVPANSFFLQLDFFNRQAEQIESIVLRNSGESFIFPKDTFTYTLTLMSAGCQSVTYQKFMIYDINDEEKKNHIVENRYLRELLPKDLDLVKNLIEYI has what recorded glycan array binding signal (z-score)?
-0.073
